# Tested on: K-562 leukemia
# test: NCI tumour cell line growth inhibition, 48 h
List of GI50 values.

Examples with their reported GI50 follow.
>  <querySmiles>
COc1ccc2[nH]c(O)c(/C=c3/cc4c(c(-c5ccc(F)c(OC)c5)n3)=Nc3ccccc3-4)c2c1

>  <reportedMeasurement>
3.16 µM

$$$$
>  <querySmiles>
Cc1nn2c(/C=C3/C(=O)Nc4cc(Cl)ccc43)c(-c3ccccc3)nc2s1

>  <reportedMeasurement>
4.27 µM

$$$$
>  <querySmiles>
C1=C2CCCC3=Cc4ccccc4OC23Oc2ccccc21

>  <reportedMeasurement>
3.54 µM

$$$$

### Prompt Recorded GI50 of CCCCCCCCNCCC[C@@H](C)[C@H]1CC[C@H]2[C@@H]3[C@H](OCCCN)C[C@H]4C[C@H](OCCCN)CC[C@]4(C)[C@H]3C[C@H](OCCCN)[C@]12C , please.
### Response 2.84 µM

### Prompt Another: Cc1nnc2n1N=C(c1ccc(Cl)cc1Cl)/C(=C/c1ccc(-c3ccc([N+](=O)[O-])cc3Cl)o1)S2
### Response 13.6 µM

### Prompt Another: Cc1c2cc(Cl)c3ccccc3c2c[n+]2ccccc12
### Response 2.98 µM

### Prompt Another: Cc1c(-c2ccnc(N)n2)c2c(n1Cc1ccccc1)C(=O)c1ccccc1C2=O
### Response 2.92 µM

Source of measurements: PubChem BioAssay (NCI)
